- assay comment: recombinant UMI read abundance after kanamycin selection (control-corrected) (log10(CPM+1)); higher = more efficient recombination; extreme values may be limits of the assay; sequences stand for … in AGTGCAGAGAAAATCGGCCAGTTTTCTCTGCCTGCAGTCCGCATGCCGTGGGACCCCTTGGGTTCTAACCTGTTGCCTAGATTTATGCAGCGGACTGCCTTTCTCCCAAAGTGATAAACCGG…AGGTTGGTTTCACT; site = the 11-nt donor;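 also: IS621 bridge recombinase in Escherichia coli cells against a fixed T5 target plasmid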
Kindly supply the reported recombinant UMI read abundance (log10) values for the records listed here.
One number for each entry.

These recorded examples may help you get a feel for the data.
>  <chain>
TCAAACTCATGGACCGGTTTTCCCGGTAATCCGTATTTGCA (site TCACACTCTTG)

>  <recombinant UMI read abundance (log10)>
1.25

$$$$
>  <chain>
CGATCATCATGGACCGGTTTTCCCGGTAATCCGTATTTGTA (site CGATCATCTTA)

>  <recombinant UMI read abundance (log10)>
2.57

$$$$
>  <chain>
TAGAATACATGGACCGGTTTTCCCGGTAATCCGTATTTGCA (site TAGCATACTTG)

>  <recombinant UMI read abundance (log10)>
0.783

$$$$
>  <chain>
GCCTATCCATGGACCGGTTTTCCCGGTAATCCGTATTTGAC (site GCCTATCCTGT)

>  <recombinant UMI read abundance (log10)>
0

$$$$
>  <chain>
ACTGTGTCATGGACCGGTTTTCCCGGTAATCCGTATTTGCA (site ACTGTGTCTTG)

>  <recombinant UMI read abundance (log10)>
2.89

$$$$

Fill in recombinant UMI read abundance (log10) for each of the 7 sequences listed.
1. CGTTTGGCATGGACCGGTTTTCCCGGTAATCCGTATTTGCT (site CATTTGGCTAG)
2. GGTGCGTCATGGACCGGTTTTCCCGGTAATCCGTATTTGGA (site GGTGCGTCTTC)
3. CTTGGATCATGGACCGGTTTTCCCGGTAATCCGTATTTGAC (site CTAGTATCTGT)
4. GAATGGGCATGGACCGGTTTTCCCGGTAATCCGTATTTGCA (site GAATGGGCTTG)
5. CCGAATCCATGGACCGGTTTTCCCGGTAATCCGTATTTGTA (site CGGAATCCTAA)
6. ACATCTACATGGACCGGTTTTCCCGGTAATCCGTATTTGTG (site ACATGTACTCA)
7. ATAGCCTCATGGACCGGTTTTCCCGGTAATCCGTATTTGTA (site ATAGCCTCTTA)

[0, 0.59, 0, 2.42, 0.00532, 0.023, 2.86]

Fill in recombinant UMI read abundance (log10) for each of the 3 sequences listed.
1. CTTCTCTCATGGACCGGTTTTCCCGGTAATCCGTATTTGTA (site CTTCTCTCTTG)
2. TACCGAACATGGACCGGTTTTCCCGGTAATCCGTATTTGGA (site TACCGAACTTC)
3. AACTCAGCATGGACCGGTTTTCCCGGTAATCCGTATTTGTA (site AACTCAGCTTA)

1. 0.558
2. 0.277
3. 1.62

Fill in recombinant UMI read abundance (log10) for each of the 3 sequences listed.
1. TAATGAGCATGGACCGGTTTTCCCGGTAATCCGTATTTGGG (site TACTGAGCTCC)
2. CAATCGACATGGACCGGTTTTCCCGGTAATCCGTATTTGTT (site CTATCGACTAA)
3. GCTTGCTCATGGACCGGTTTTCCCGGTAATCCGTATTTGAT (site GCTTGCACTAT)

1: 0.00582; 2: 0.0699; 3: 0.00386
